Give CC50 at 24 h for every item shown.
experiment: cytotoxicity, luciferase expression-based test; conditions: human, TZM-bl cells

Please review the following examples before continuing.
>  <chemical-smiles>
O=C(O)C(=O)c1c[nH]c2cc(Cc3cccc(C(=O)O)c3)ccc12

>  <value-reported>
> 100 µM

$$$$
>  <chemical-smiles>
O=C(O)c1cccc(Cn2ccc3ccc(-c4cccc(O)c4)cc32)c1

>  <value-reported>
> 100 µM

$$$$
>  <chemical-smiles>
O=C(O)c1cccc(Cc2ccc3ccn(Cc4cccc(C(=O)O)c4)c3c2)c1

>  <value-reported>
> 200 µM

$$$$
>  <chemical-smiles>
O=C(O)c1cc(O)cc(Cc2ccc3cc[nH]c3c2)c1

>  <value-reported>
> 100 µM

$$$$
>  <chemical-smiles>
O=C(O)c1cccc(Cc2ccc3[nH]ccc3c2)c1

>  <value-reported>
> 400 µM

$$$$
>  <chemical-smiles>
O=C(O)c1cccc(Cc2ccc3ccn(Cn4ccc5ccc(Cc6cccc(C(=O)O)c6)cc54)c3c2)c1

>  <value-reported>
> 100 µM

$$$$
>  <chemical-smiles>
COc1cccc(-c2ccc3ccn(Cc4cccc(C(=O)O)c4)c3c2)c1

>  <value-reported>
> 100 µM

$$$$

Let's switch to this molecule now.
# query: CC50 at 24 h of entry `COc1ccc(Cn2ccc3ccc(-c4ccc5ccn(Cc6cccc(C(=O)O)c6)c5c4)cc32)cc1` 18.9 µM
